For each of the proteins below, state its Km.
Target: T1, FNPCP, CP of an uncharacterized NRP gene cluster from Fischerella
T1 chain: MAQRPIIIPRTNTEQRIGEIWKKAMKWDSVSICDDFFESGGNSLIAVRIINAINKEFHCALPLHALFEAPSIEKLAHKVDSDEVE
Answers are plain numbers, in µM.

Would you be so kind as to report Km for each listed record?
1. MPPT, Sfp-like phosphopantetheinyl transferase (PPTase) from Microcystis aeruginosa NIES843 (protein) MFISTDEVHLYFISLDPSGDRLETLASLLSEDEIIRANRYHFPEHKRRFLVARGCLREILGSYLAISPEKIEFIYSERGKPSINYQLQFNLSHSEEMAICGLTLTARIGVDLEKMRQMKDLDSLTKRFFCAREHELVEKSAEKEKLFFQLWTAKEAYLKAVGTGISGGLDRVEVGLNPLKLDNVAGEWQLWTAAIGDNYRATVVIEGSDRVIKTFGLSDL
2. APPT, Sfp-like phosphopantetheinyl transferase (PPTase) from Anabaena sp. PCC7120 (protein) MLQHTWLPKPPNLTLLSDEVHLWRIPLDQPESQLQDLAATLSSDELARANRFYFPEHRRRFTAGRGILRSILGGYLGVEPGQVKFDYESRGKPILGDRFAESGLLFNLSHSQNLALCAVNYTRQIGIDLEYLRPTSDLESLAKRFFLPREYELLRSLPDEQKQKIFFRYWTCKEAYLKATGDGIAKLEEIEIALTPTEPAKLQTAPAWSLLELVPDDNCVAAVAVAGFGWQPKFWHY
3. Sfp, phosphopantetheinyl transferase from Bacillus subtilis (protein) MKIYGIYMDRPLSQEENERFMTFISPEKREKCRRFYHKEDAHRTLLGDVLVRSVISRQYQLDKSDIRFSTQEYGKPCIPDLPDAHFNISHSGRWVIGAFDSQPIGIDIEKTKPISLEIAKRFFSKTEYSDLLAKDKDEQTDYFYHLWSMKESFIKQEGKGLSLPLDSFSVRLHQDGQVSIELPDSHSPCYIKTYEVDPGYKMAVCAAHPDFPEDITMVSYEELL
4. SPPT, Sfp-like phosphopantetheinyl transferase (PPTase) from Synechocystis sp. PCC6803 (protein) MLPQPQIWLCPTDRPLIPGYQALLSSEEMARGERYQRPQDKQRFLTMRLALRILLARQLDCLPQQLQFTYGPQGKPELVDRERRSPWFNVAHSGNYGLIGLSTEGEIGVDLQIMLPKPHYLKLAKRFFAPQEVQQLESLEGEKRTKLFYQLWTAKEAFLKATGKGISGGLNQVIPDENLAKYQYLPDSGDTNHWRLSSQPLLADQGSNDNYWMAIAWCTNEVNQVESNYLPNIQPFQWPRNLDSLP

1. 7.2
2. 12.1
3. 11.7
4. 7
